Test system: HCC1937
Assay: relative cell viability, compound alone, vs DMSO (fraction of DMSO control); higher = less growth inhibition
Conditions: 72 h
Where a name gives a salt, the structure may show the parent alone.
Decision: relative cell viability beneath 1 gives t; relative cell viability meeting or exceeding 1 gives f.

Is relative cell viability of COc1ccc2c(c1)CCC1C2CCC2(C)C(NCCCCCCN3C(=O)C=CC3=O)CCC12 (configuration not stated) strictly below 1?
t

Is relative cell viability of CCCCCCS(=O)(=O)NC(=O)c1ccc(CSCc2ccc(-c3ccccc3)cc2)cc1 strictly below 1?
t

Is relative cell viability of C=C[C@H]1CN2CC[C@H]1C[C@@H]2[C@@H](O)c1ccnc2ccc(OC)cc12 [Quinidine sulfate] strictly below 1?
t

Is relative cell viability of COc1cc(C(C)=O)ccc1O [Acetovanillone] strictly below 1?
t

Is relative cell viability of CCC(CC)CC1(C(=O)Nc2ccccc2SC(=O)C(C)C)CCCCC1 [Dalcetrapib] strictly below 1?
f

---

Tested on: HCC1937
Experiment: relative cell viability, compound + RSL3, vs DMSO (fraction of DMSO control); higher = less growth inhibition
Settings: 72 h
Experimental Readout: relative cell viability
Answer with a bare number; do not write a unit.

Endpoint output: relative cell viability of O=C(Nc1ccncc1)c1cc([N+](=O)[O-])ccc1Cl + COC(=O)c1ccc([C@H]2c3[nH]c4ccccc4c3C[C@H](C(=O)OC)N2C(=O)CCl)cc1 . Value?
0.297

Endpoint output: relative cell viability of Nc1ncnc2c1ncn2[C@@H]1O[C@H](COP(=O)(O)O)[C@@H](O)[C@H]1O [Adenosine 5'-monophosphate] + COC(=O)c1ccc([C@H]2c3[nH]c4ccccc4c3C[C@H](C(=O)OC)N2C(=O)CCl)cc1 . Value?
0.597

Endpoint output: relative cell viability of O=C(O)c1cc(F)c2nc(N3[C@@H]4CC[C@H]3C[C@@H](OCc3c(-c5ccccc5OC(F)(F)F)noc3C3CC3)C4)sc2c1 [Tropifexor] + COC(=O)c1ccc([C@H]2c3[nH]c4ccccc4c3C[C@H](C(=O)OC)N2C(=O)CCl)cc1 . Value?
0.603

Endpoint output: relative cell viability of CC1(C)CC[C@]2(C(=O)O[C@@H]3O[C@H](CO)[C@@H](O)[C@H](O)[C@H]3O)CC[C@]3(C)C(=CC[C@@H]4[C@@]5(C)CC[C@H](O[C@@H]6O[C@H](C(=O)O)[C@@H](O)[C@H](O)[C@H]6O)C(C)(C)[C@@H]5CC[C@]43C)[C@@H]2C1 [Chikusetsusaponin IVa] + COC(=O)c1ccc([C@H]2c3[nH]c4ccccc4c3C[C@H](C(=O)OC)N2C(=O)CCl)cc1 . Value?
0.597

---

System: MDA-MB-231
Assay: relative cell viability, compound alone, vs DMSO (fraction of DMSO control); higher = less growth inhibition
Conditions: 72 h
Experimental Readout: relative cell viability

Endpoint output: relative cell viability of Cc1nc2c([nH]1)c(=O)n(C)c(=O)n2Cc1ccco1 . Value?
0.924

Endpoint output: relative cell viability of O=C(c1ccc(-c2nc3ccc(F)cc3o2)cc1)N1CCN(C(=O)C2(O)CC2)CC1 . Value?
0.918

Endpoint output: relative cell viability of CC(C)(CCCCCC(O)CCCCCC(C)(C)C(=O)O)C(=O)O . Value?
0.886

Endpoint output: relative cell viability of COC(=O)CN(c1ccc(CN(c2ccc(OCc3ccc(C)cc3)c(C(=O)OC)c2)S(=O)(=O)Cc2ccccc2)cc1)S(C)(=O)=O . Value?
0.921

---

Provide the reported relative cell viability of each item.
System: MDA-MB-231
Assay: relative cell viability, compound alone, vs DMSO (fraction of DMSO control); higher = less growth inhibition
Details: 72 h
Answer with a bare number; do not write a unit.

Endpoint output: relative cell viability of CCC1C(O)C2C3CCC(C(C)CCO)C3(C)CCC2C2(C)CCC(O)CC12 (centres undefined) . Value?
0.916

Endpoint output: relative cell viability of Cc1ccc(/C=C2\SC(=S)N(CCCCCC(=O)Nc3ccc(C(=O)O)c(O)c3)C2=O)cc1 . Value?
0.914

Endpoint output: relative cell viability of COc1cc(F)c(C(C)C)cc1-c1ccc(C(F)(F)F)cc1CN1C(=O)O[C@H](c2cc(C(F)(F)F)cc(C(F)(F)F)c2)[C@@H]1C . Value?
0.877

Endpoint output: relative cell viability of NC(N)=N/N=C/c1cccc(Cl)c1Cl [Raphin1 acetate] . Value?
0.822

---

Test system: MDA-MB-231
Test: relative cell viability, compound alone, vs DMSO (fraction of DMSO control); higher = less growth inhibition
Details: 72 h
Provide the reported relative cell viability of each item.
Answer with a bare number; do not write a unit.

Endpoint output: relative cell viability of Cc1cccc(Nc2cc(Cl)nc(SCC(=O)O)n2)c1C [Pirinixic Acid] . Value?
0.88

Endpoint output: relative cell viability of O=C(NN1CCCCC1)c1nn(-c2ccc(Cl)cc2Cl)c(-c2ccc(C#Cc3ccc(C(F)(F)F)cc3)s2)c1CNS(=O)(=O)N1CCCC1 . Value?
0.893

Endpoint output: relative cell viability of CCNC1(C(N)=O)CCN(c2ncnc3c2nc(-c2ccccc2Cl)n3-c2ccc(Cl)cc2)CC1 [Otenabant] . Value?
0.915

Endpoint output: relative cell viability of CCc1c(-c2ccccc2)c(-c2ccccc2)nn1-c1ccccc1-c1cccc(OCC(=O)O)c1 . Value?
0.994

Endpoint output: relative cell viability of O=C1C(SCCO)=C(SCCO)C(=O)c2ccccc21 . Value?
0.875

Endpoint output: relative cell viability of O=C(O)c1cc(F)c2nc(N3[C@@H]4CC[C@H]3C[C@@H](OCc3c(-c5ccccc5OC(F)(F)F)noc3C3CC3)C4)sc2c1 [Tropifexor] . Value?
0.971

Endpoint output: relative cell viability of O=C(/C=C/c1ccc(/C=C/C(=O)Nc2ccc(C3=NCCN3)cc2)cc1)Nc1ccc(C2=NCCN2)cc1 . Value?
0.765

Endpoint output: relative cell viability of C[C@H](CCC(=O)O)[C@H]1CC[C@H]2[C@@H]3C[C@H](O)[C@@H]4C[C@H](O)CC[C@]4(C)[C@H]3CC[C@]12C [Hyodeoxycholic acid] . Value?
1.02

Endpoint output: relative cell viability of COc1ccc(N(C(=O)Nc2c(C)cccc2C)c2cc(Nc3ccc(N4CCN(C)CC4)cc3)ncn2)c(OC)c1 . Value?
1.11

Endpoint output: relative cell viability of Oc1ccc(/C=C/c2cc(O)cc(O)c2)cc1 [Resveratrol] . Value?
0.755

Endpoint output: relative cell viability of CCC(C)(Oc1ccc(C2(c3ccc(OC(C)(CC)C(=O)O)cc3)CCCCC2)cc1)C(=O)O (stereo unspecified) [Clinofibrate] . Value?
0.846

Endpoint output: relative cell viability of CC[C@H](C)C(=O)O[C@H]1C[C@H](O)C=C2C=C[C@H](C)[C@H](CC[C@@H](O)C[C@@H](O)CC(=O)O)[C@H]21 [Pravastatin sodium] . Value?
0.964

Endpoint output: relative cell viability of CN(C)c1cccc(-c2c3c(=O)n(-c4ccccc4Cl)[nH]c3cc(=O)n2C)c1 . Value?
0.974

Endpoint output: relative cell viability of C[C@H](CCC(=O)O)[C@H]1CC[C@H]2[C@@H]3CC[C@@H]4C[C@H](O)CC[C@]4(C)[C@H]3CC[C@]12C [Lithocholic acid] . Value?
0.99

Endpoint output: relative cell viability of CCOC(=O)N1c2ccc(C(F)(F)F)cc2[C@@H](N(Cc2cc(C(F)(F)F)cc(C(F)(F)F)c2)C(=O)OC)C[C@H]1CC [Torcetrapib] . Value?
0.781

Endpoint output: relative cell viability of Nc1ccc(C(=O)O)c(O)c1 [Aminopar] . Value?
0.911

Endpoint output: relative cell viability of Cc1ccc(Oc2nc3cc(-c4ccc(-c5ccccc5)cc4)c(Cl)cc3[nH]2)cc1C(=O)O . Value?
0.92

Endpoint output: relative cell viability of CCN(CC)Cc1ccc(C(=O)N(CCc2ccccc2OC)[C@@H]2CCNC2)cc1 . Value?
0.979

Endpoint output: relative cell viability of Cc1coc2c1C(=O)C(=O)c1c-2ccc2c(C)cccc12 [Tanshinone I] . Value?
0.51

Endpoint output: relative cell viability of O=C(NNc1ccccc1)c1ccncc1 [PluriSln 1] . Value?
0.814

Endpoint output: relative cell viability of COC(=O)c1sccc1S(=O)(=O)Nc1ccc(Nc2ccccc2)cc1OC . Value?
0.871

Endpoint output: relative cell viability of CC[C@H]1[C@@H](O)[C@@H]2[C@H](CC[C@]3(C)[C@@H]([C@H](C)CCC(=O)O)CC[C@@H]23)[C@@]2(C)CC[C@@H](O)C[C@@H]12 [Obeticholic Acid] . Value?
0.856

Endpoint output: relative cell viability of C[C@]12C=CC(=O)N[C@@H]1CC[C@@H]1[C@@H]2CC[C@]2(C)[C@@H](C(=O)Nc3cc(C(F)(F)F)ccc3C(F)(F)F)CC[C@@H]12 [Dutasteride] . Value?
0.777

Endpoint output: relative cell viability of CC(C)Cc1ccc([C@H](C)C(=O)O)cc1 [Dexibuprofen] . Value?
0.905

Endpoint output: relative cell viability of COc1ccc(-c2cc(=O)c3c(O)c(OC)c(O)cc3o2)cc1OC [Eupatilin] . Value?
0.739

Endpoint output: relative cell viability of COc1cc(N(C)C)cc(CN(C)CCc2ccc([N+](=O)[O-])cc2)c1O [CDC25 Phosphatase Inhibitor I] . Value?
0.976

Endpoint output: relative cell viability of C[C@H](CCOc1cccc(CC(=O)O)c1)N(Cc1cccc(C(F)(F)F)c1Cl)CC(c1ccccc1)c1ccccc1 . Value?
0.841

Endpoint output: relative cell viability of Cc1cc([N+](=O)[O-])ccc1NS(=O)(=O)c1cc(Cl)ccc1Cl . Value?
0.795

Endpoint output: relative cell viability of O=C(O)c1cccc(N=Nc2c(O)[nH]c3ccc(S(=O)(=O)NCc4ccc(F)cc4)cc23)c1 . Value?
0.938

Endpoint output: relative cell viability of COc1ccc(C2(CNC(=O)c3ccc(NC(=O)c4ccco4)cc3)CCOCC2)cc1 . Value?
0.873

Endpoint output: relative cell viability of N#Cc1ccc(Oc2cccc(NC(=O)Nc3ccc(Cl)c(C(F)(F)F)c3)c2)cc1 . Value?
0.276
